# Target Or Test System: Cytochrome P450 1A2 (Homo sapiens) (UniProt P05177)
# Sequence (P05177 whole entry, looked up): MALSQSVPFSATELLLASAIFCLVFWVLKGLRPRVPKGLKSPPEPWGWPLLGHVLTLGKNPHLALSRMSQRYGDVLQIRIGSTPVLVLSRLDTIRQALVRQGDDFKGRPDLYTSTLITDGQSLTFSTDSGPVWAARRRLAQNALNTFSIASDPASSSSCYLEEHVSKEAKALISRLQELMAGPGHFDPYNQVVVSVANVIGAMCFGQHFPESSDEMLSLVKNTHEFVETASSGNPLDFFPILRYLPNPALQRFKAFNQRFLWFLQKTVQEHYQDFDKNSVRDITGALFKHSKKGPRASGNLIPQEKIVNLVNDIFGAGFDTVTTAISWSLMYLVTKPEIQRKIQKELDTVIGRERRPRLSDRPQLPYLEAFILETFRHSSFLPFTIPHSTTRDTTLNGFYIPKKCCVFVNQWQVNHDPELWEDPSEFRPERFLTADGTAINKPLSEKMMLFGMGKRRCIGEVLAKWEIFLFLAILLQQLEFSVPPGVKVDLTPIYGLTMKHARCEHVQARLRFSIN
# Procedure Details: Cytochrome panel assay with activity outcomes; as to activity, negative = inhibition: % is scaled to controls: 0 for no effect and ±100 for the full control effect
# Measurement Setup: recombinant CYP, pro-luciferin dealkylation, luminescence, p450-cyp1a2; series mostly up to 57.1 µM
Hit rate of the full screen: of about 16,000 compounds, about 5,700 (36%) were called active. About 24% were inconclusive and are not listed. The list shows a part of the results.
A collection of molecules and their measured activity, negative = inhibition

Worked cases, answers included:
Molecule: CC(C)CO/N=C1/C[C@@H](O)[C@@H](O)[C@@H]2[C@@H]3C(=O)N([C@@H](C)c4ccccc4)C(=O)[C@H]3CC[C@H]12
Target Or Test System: Cytochrome P450 1A2 (Homo sapiens) (UniProt P05177)
activity, negative = inhibition: 4.53% [at 11.4 µM] (inactive)

Molecule: C#CCCCO/N=C1/C[C@@H](O)[C@@H](O)[C@@H]2[C@@H]3C(=O)N(CCC(=O)OCC)C(=O)[C@H]3CC[C@@H]12
Target Or Test System: Cytochrome P450 1A2 (Homo sapiens) (UniProt P05177)
activity, negative = inhibition: -0.481% [at 11.4 µM] (inactive)

# activity, negative = inhibition of "O=C(/C=C\c1ccccc1)c1ccccc1O" = -10.2% [at 11.4 µM] (inactive)

For "COC(=O)[C@@H]1[C@@H]2C[C@H]3c4[nH]c5ccccc5c4CCN3C[C@@H]2CC[C@@H]1OS(=O)(=O)O" the molecule record lists activity, negative = inhibition as -10.3% [at 2.29 µM] (inactive)

Looking up C=C1C=C(Br)C2(OCCCO2)[C@H]2OC12 (some centres not stated) , I found its activity, negative = inhibition recorded as -2.64% [at 11.4 µM] (inactive)

For this molecule ( "O=C(O)/C(=C\c1ccc(O)cc1)c1cccc2ccccc12" ), measured activity, negative = inhibition is -10.8% [at 11.4 µM] (inactive)

Entry "C[C@@H]1CC[C@@H]2C(=O)N3[C@@H](CC[C@@H](C)[C@@H]3c3ccc(-c4ccco4)cc3)C(=O)N2[C@H]1c1ccc(-c2ccco2)cc1" , activity, negative = inhibition reported as -4.34% [at 11.4 µM] (inactive)

Input "CCO[C@H](c1cc(OC)cc([N+](=O)[O-])c1OC)[C@H](C)/C=C\CC(=O)OC" . Output activity, negative = inhibition: 1.93% [at 11.4 µM] (inactive)

Measured activity, negative = inhibition of "CC1(C)[C@@H]2CC[C@]1(C)[C@@H](OC(=O)/C=C\c1ccccc1)C2" : -3.39% [at 2.29 µM] (inactive)

====

# Target Or Test System: Cytochrome P450 1A2 (Homo sapiens) (UniProt P05177)
# Procedure Details: Cytochrome panel assay with activity outcomes
# Measurement Setup: recombinant CYP, pro-luciferin dealkylation, luminescence, p450-cyp1a2; series mostly up to 57.1 µM
# Method: The P450 gene superfamily is involved in the metabolism and clearance of xenobiotics. This assay used various human CYP P450 isozymes to measure the dealkylation of various pro-luciferin substrates to luciferin. The luciferin is then measured by luminescence after the addition of a luciferase detection reagent. […] Inhibitors and some substrates limit the production of luciferin, and decrease measured luminescence. […] 8, Detection, 1 sec, ViewLux luminescent read […]
In all, about 16,000 compounds went through this assay and about 5,700 (36%) were called active. Not shown: some 24% with an inconclusive outcome. Calls follow the shape of the dose curve; as a rule, active = well fitted curve in the direction sought with a large enough effect; inconclusive = small, poorly fitted or top-dose-only effect, or effect the other way; inactive = no such curve, though single readings can be large or run the other way. Some of the results follow.
Mark one answer only. Choices: true (1) = active, false (0) = inactive

Compound: COC(=O)c1cc(OC)c(OC)cc1NC(=O)CSc1ccccc1
Answer Label: true (1)
//
Compound: Cc1ccccc1OCC(O)Cn1c(NCc2ccccc2)nc2c1c(=O)[nH]c(=O)n2C (stereo not drawn)
Answer Label: false (0)
//
Compound: C[n+]1cn(CC(O)COCc2ccccc2)c2ccccc21 (stereo not drawn)
Answer Label: false (0)

Just curious, what result did "CN(C)c1ncc2nc(-c3cccs3)c(=O)n(-c3ccccc3)c2n1" get here? true (1)

Check the results log: what was the call for "CCC(=O)NNC(=O)CCC(=O)Nc1ccccc1" ? false (0)

Could you please tell me the result logged for "O=S(=O)(c1ccccc1)N1CCC2(CC1)CN(Cc1nccs1)C2" in this assay? false (0)

What did this assay record as the result for "OCCN(C=NC1=NN(c2cccc(C(F)(F)F)c2)CC1)CCO" ? true (1)

What outcome does the record of this test show for "CC(C)CN1CCC2(CC1)CCN(S(=O)(=O)c1ccccc1)CC2" ? false (0)

Hello, the source for this data is PubChem BioAssay AID1851, in case you need it.
